assay.info: HepG2 cytotoxicity, primary screen, cytotoxicity control for P. falciparum antimalarial project, cell-based, ATP luminescence (AID 2303);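 note: 0% = DMSO wells and 100% = digitonin-killed cells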
condition.notes: HepG2 viability, 24-48 h, at 10 µM, stronger effect = higher value
Residues, ends and D or L forms follow the SMILES beside them. *: point of attachment. Boc = CC(C)(C)OC(=O)*
quantity.measured: inhibition (%)
All answers are understood in %, so give the number only.

INSERT INTO results (compound, test_result) VALUES
  ('COc1cc2cc(-c3nc4ccccc4[nH]3)c(N)nc2cc1OC', 91);

inhibition for `CCC[C@@H]([C@@H](CC(C)C)C(=O)N[C@H](C(=O)Nc1nccs1)C(C)(C)SCCNC(=O)OCC)N(O)C=O` ? -8

Fill in: inhibition of `O=S(=O)(NCCN1CCCC1)c1ccc(-c2ccc(CNCc3ccccc3)cc2)cc1` is ___ 47

For the compound shown here, `CN(C)c1cccc2c1nc(-c1ccco1)n2CCNCc1ccccc1` , give the reported inhibition. -1

# get_value(readout='inhibition', item= `COCCOc1nc(N)nc2ncc(Cc3cc(OC)ccc3OC)c(C)c12` ) 61

Query: inhibition; subject: COC(=O)CC[C@H](NC(=O)[C@H](C)NC(=O)OC(C)(C)C)C(=O)OC (Boc-Ala-Glu(OMe)-OMe) 12

// returns reported inhibition for input CN1CCCC(CN2CCN(Cc3ccc(-c4ccc(-c5nc6ccc(F)cc6[nH]5)cc4)cc3)CC2)C1 (stereo not given) 90

So what's the measured inhibition for this one? `COc1cccc(CC(=O)N2CCC(n3c(C)nc4ccc(C)cc43)CC2)c1` 1

Which value of inhibition has been reported for `CCCCN1C(=O)C(c2ccccc2)(c2ccccc2)N=C1N` in the records? 19

Can you look up the measured inhibition of `Cc1noc(C)c1CN1CCCN(c2ccc3c(c2)CCN(Cc2ccc(-c4ncc[nH]4)cc2)CC3)CC1` for me? 1

Give the measured inhibition of Cc1cc(CNC(c2ccccc2)C2CCC2)cc(C)c1O (stereo not given) . 78

Fill blank: measured inhibition of the compound `Nc1nccc2ccc(-c3cccnc3)cc12` is ____. 9

Reported inhibition, compound `COc1ccc(C2CCN(CCCNC(=O)c3ccc(NC(=O)c4ccc(Cl)cc4)cc3)CC2)c(OC)c1` : ____ 26

Query (compound): `O=C(Cc1cnc[nH]1)Nc1ccc(-c2ccc(-c3nc4ccccc4[nH]3)s2)cc1` ; field requested: inhibition 44

Item `CC(C)(C)c1cc(C(=O)Nc2cccnc2)cc(C(=O)Nc2cccnc2)c1` has what recorded inhibition? -12

Form field: reported inhibition of `Cc1noc(C)c1-c1cccc(CNCc2cccc(-c3ccc(-c4nc5c(C)cccc5[nH]4)cc3)c2)c1` 24

Request the reported inhibition associated with `O=C(Nc1ccc(-c2nc3ccccc3[nH]2)cc1)c1cccc([N+](=O)[O-])c1` 45

----------
# growth inhibition values compiled below
assay.info: inhibition of 3D7 malaria parasite growth – strain 3D7 (AID 2306);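 note: 0% = DMSO wells and 100% = chloroquine plus artemisinin control wells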
condition.notes: P. falciparum 3D7 erythrocytic growth, LDH absorbance, 72 h; at 2 µM; stronger effect = higher value
Your answer is read as %, so omit the unit and give the number.

INSERT INTO assay_data (molecule, test_result) VALUES
  ('CCC(CC(C)C(=O)O)=C(c1ccccc1)c1ccccc1 (stereo not given)', 98);

Look at this molecule and give its reported growth inhibition. `COc1cc2nc(Nc3ccc(Oc4ccccc4)cc3)nc(Nc3ccc(Oc4ccccc4)cc3)c2cc1OC` 95

Fill in the blank: the reported growth inhibition of O=C(/C=C/c1ccccc1F)NC1CCC(CCN2CCc3ccc(-c4cccnc4)cc3CC2)CC1 (stereo not given) is ____. 92

Quick one: growth inhibition of `O=C(NCc1ccc(C(=O)NC2CCCCCC2)cc1)c1ccc(O)c(-c2ccc(Cl)c(Cl)c2)c1` ? 83

Please look up its growth inhibition: `O=C(Nc1nc(-c2ccccn2)cc2ccccc12)c1cccc(Cl)c1` 96

----------
assay.info: HepG2 cytotoxicity, primary screen, cytotoxicity control for P. falciparum antimalarial project, cell-based, ATP luminescence (AID 2303);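 note: 0% = DMSO wells and 100% = digitonin-killed cells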
condition.notes: HepG2 viability, 24-48 h, at 10 µM, stronger effect = higher value
Calls of active or inactive are those of the source.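 How the source made its calls: active means inhibition above 50%; inactive means the rest.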
quantity.measured: inhibition

Please review the following examples before continuing.
INSERT INTO results (compound, test_result) VALUES
  ('Cc1cc(N[C@@H](CC(C)C)C(=O)NCc2cccs2)nc(NCCc2ccc(F)cc2)n1', '20% (inactive)'),
  ('NC1CCN(Cc2cccc(-c3csc(-c4nc5ccccc5[nH]4)c3)c2)C1 (centres undefined)', '10% (inactive)');

I have this compound here, `c1ccc2[nH]c(-c3ccc(-c4ccc(CN5CCCCC5)cc4)cc3)nc2c1` , and I need its recorded inhibition. 27% (inactive)

Query: inhibition; subject: O=C(O)C[C@H](NC(=O)c1cc(-c2ccc3c(c2)OCO3)no1)C(=O)O (tested in a mixture with another compound) -4% (inactive)

Any idea what its inhibition is? The compound is `CS(=O)(=O)c1ccc(-c2cnc(N)c(-c3cccc(O)c3)c2)cc1` 48% (inactive)

Please look up its inhibition: `C[C@H](NC(=O)c1c(CN2CCN(C(=O)C(C)(C)C)CC2)c(-c2cccs2)nc2ccccc12)C1CCCCC1` 2% (inactive)

Query (compound): `CC(C)(C)c1ccc(/C=C/C(=O)NCCCCCN2CCC(c3c[nH]c4ccccc34)CC2)cc1` ; field requested: inhibition 70% (active)

Which value of inhibition has been reported for `Cc1c(C(=O)N(C)C)sc2c1c(=O)n(Cc1ccccc1)c(=O)n2CC(=O)Nc1ccccc1F` in the records? 13% (inactive)

Entry `CN1CCCN(Cc2ccc(-c3cccc(NC(=O)c4cccc(F)c4)c3)cc2)CC1` has what inhibition? 28% (inactive)

----------
growth inhibition listing for selected compounds.
assay.info: inhibition of 3D7 malaria parasite growth – strain 3D7 (AID 2306);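 note: 0% = DMSO wells and 100% = chloroquine plus artemisinin control wells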
condition.notes: P. falciparum 3D7 erythrocytic growth, LDH absorbance, 72 h; at 2 µM; stronger effect = higher value
# unit: % | format: bare number

What value of measured growth inhibition is listed for `CC(C)CNCc1cccc(-c2ccc(CN(C(=O)NCCc3ccccc3)C3CCN(Cc4ccccc4)CC3)cc2)c1` ? 98

Given the entry COc1cccc2cc(C(=O)N[C@@H](CC(C)C)C(=O)NC3CC[C@@H](C)N(C(=O)Nc4ccncc4)CC3=O)oc12 (some centres undefined) , report its measured growth inhibition. 95

Bench note: what growth inhibition did O=C(Nc1ccc(-c2nc3ccccc3[nH]2)cc1)C1CCCN(CC2CC2)C1 (centres undefined) show? 89

Looking for the measured growth inhibition of `Cc1cc(N(C)C)nc(Nc2ccc(NC(=O)CCc3ccccc3)cc2)n1` , can you help? 100

Record request: growth inhibition value, item `O=c1cc(NCCCNCc2ccc3c(c2)OC(F)(F)O3)[nH]c2ccccc12` 100

Value lookup for growth inhibition; key = `COc1ccc(Nc2nc(NCc3ccc(-n4ccnc4)cc3)cc(-c3ccc(OC)cc3)n2)cc1` 96

----------
assay.info: HepG2 cytotoxicity, primary screen, cytotoxicity control for P. falciparum antimalarial project, cell-based, ATP luminescence (AID 2303);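 note: 0% = DMSO wells and 100% = digitonin-killed cells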
condition.notes: HepG2 viability, 24-48 h, at 10 µM, stronger effect = higher value
Reported inhibition values for a set of molecules
Write the value in % as a bare number.

Query (molecule): CN1CCN(CC(O)CNC(=O)Nc2ccc(Cl)cc2)CC1 (centres undefined) ; field requested: inhibition 1

Dear colleague, I am looking for the recorded inhibition of the following molecule: OCC(c1ccccc1)n1c(COc2ccc(Cl)cc2)nc2c(OCCCN3CCCCC3)cccc21 (centres undefined) 6

Given the molecule `Nc1c2c(nc3ccc(NC(=O)c4ccc([N+](=O)[O-])cc4)cc13)CCCC2` , what is its reported inhibition? 19

Find the recorded inhibition belonging to O=C(NCC1CC1)C1CCN(C(c2ccccc2)c2cc(F)cc(F)c2)CC1 (centres undefined) and report it. -3

Which inhibition value belongs to `CC(=O)N1CCN(c2ccc(NC(=O)c3oc(-c4ccccc4)nc3C(F)(F)F)cn2)CC1` ? -6

Please give the measured inhibition for this molecule: `CC(C)(C)c1ccc(Cn2c(=N)n(CC(=O)c3ccc(-c4ccccc4)cc3)c3ccccc32)cc1` 63

----------
assay.info: inhibition of 3D7 malaria parasite growth – strain 3D7 (AID 2306);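 note: 0% = DMSO wells and 100% = chloroquine plus artemisinin control wells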
condition.notes: P. falciparum 3D7 erythrocytic growth, LDH absorbance, 72 h; at 2 µM; stronger effect = higher value
Calls of active or inactive are those of the source. How the calls were made is not given here.
quantity.measured: growth inhibition

INSERT INTO results (molecule, quantity_measured, test_result) VALUES
  ('C=CCn1c(Sc2ccc(C#N)c([N+](=O)[O-])c2)nnc1-c1ccc(OC)cc1', 'growth inhibition', '96% (active)'),
  ('Cc1cc(F)ccc1Nc1nc(N(C)c2ccccc2)c2cccc(O)c2n1', 'growth inhibition', '92% (active)'),
  ('COc1ccc(-n2ccnc2SCC(=O)Nc2cccc(C(F)(F)F)c2)c(OC)c1', 'growth inhibition', '98% (active)'),
  ('COc1ccc(C2CC(=O)C3=C(C2)NC(C)=C(C(=O)OC2CCCC2)C3c2cccc(O)c2)cc1OC (centres undefined)', 'growth inhibition', '101% (active)'),
  ('O=C(Cc1cnc[nH]1)Nc1ccc(-c2ccc(-c3nc4ccc(C(F)(F)F)cc4[nH]3)s2)cc1', 'growth inhibition', '101% (active)');

Now consider a different molecule.
Please report the recorded growth inhibition for `CCOc1ccc(NC(=O)c2ccc(CN3CCCN(Cc4cccc(O)c4)CC3)cc2)cc1` . 85% (active)
